Target: CDK1/CyclinB (h) (Homo sapiens)
Sequence (P06493 whole entry): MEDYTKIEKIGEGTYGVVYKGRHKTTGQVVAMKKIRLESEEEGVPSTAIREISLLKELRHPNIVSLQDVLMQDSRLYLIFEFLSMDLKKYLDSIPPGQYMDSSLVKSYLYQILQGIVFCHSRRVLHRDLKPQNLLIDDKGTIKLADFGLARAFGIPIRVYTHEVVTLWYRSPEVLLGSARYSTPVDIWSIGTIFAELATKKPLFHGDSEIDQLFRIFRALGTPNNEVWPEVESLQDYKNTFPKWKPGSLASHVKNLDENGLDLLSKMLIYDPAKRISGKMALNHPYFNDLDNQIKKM
Sequence (P14635 whole entry partner): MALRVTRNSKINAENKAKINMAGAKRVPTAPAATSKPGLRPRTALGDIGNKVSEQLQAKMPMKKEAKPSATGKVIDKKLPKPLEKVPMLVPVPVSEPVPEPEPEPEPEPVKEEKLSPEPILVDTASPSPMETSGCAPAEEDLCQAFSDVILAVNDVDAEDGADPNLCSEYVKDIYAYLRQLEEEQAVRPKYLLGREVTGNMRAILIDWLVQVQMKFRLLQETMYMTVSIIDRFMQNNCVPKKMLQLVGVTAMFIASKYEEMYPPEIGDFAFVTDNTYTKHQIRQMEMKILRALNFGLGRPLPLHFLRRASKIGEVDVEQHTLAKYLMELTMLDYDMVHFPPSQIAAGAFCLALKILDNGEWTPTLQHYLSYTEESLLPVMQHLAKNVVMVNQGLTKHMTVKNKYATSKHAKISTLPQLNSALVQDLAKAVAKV
Assay: CDK1/CyclinB human kinase inhibition, Invitrogen's FRET assay (Z'lyte)
Type: biochemical
Details: read-out: CDK1 pIC50 (converted)
Kindly state IC50 for each of the entries shown.

Here's what some known entries look like.
>>> testvalue("COc1ccc2cc1CN(C)CCNC(=O)[C@@H]1CCCN1Cc1cc(C#N)cc(c1)Nc1nccc-2n1")
"> 10 µM"
>>> testvalue("O=C1NCc2cc(ccc2N2CCOCC2)Nc2nccc(n2)-c2cccc(c2)CCCN2CCC[C@@H]12")
"0.00363 µM"
>>> testvalue("CN1CCCNC(=O)[C@H](CO)NCc2cccc(c2)Nc2nccc(n2)-c2ccc(cc2)C1")
"> 10 µM"
>>> testvalue("O=C1NCc2cccc(c2)-c2ccnc(n2)Nc2ccccc2CN2CCC[C@@H]12")
"> 10 µM"
>>> testvalue("CN1CCCNC(=O)[C@H](CO)NCc2cc(cc(N3CCOCC3)c2)Nc2nccc(n2)-c2ccc(cc2)C1")
"> 10 µM"

Take each entry in turn and give its IC50.
1. COc1ccc2cc1CN(C)CCNC(=O)[C@@H]1CCCN1Cc1cccc(c1)Nc1nccc-2n1
2. CN1CCN(C)c2ccc(cn2)-c2ccnc(n2)Nc2cc(c3c(c2)OCO3)CN2CCC[C@H]2C1=O
3. C[C@@H]1NCc2cc(ccc2N2CCOCC2)Nc2nccc(n2)-c2ccc(cc2)OCCCNC1=O
4. CN1CCCNC(=O)CN2CCN(CC2)Cc2cccc(c2)Nc2nccc(n2)-c2ccc(cc2)C1
5. COc1ccc2cc1CN(C)CCNC(=O)CN1CCN(CC1)Cc1cc(cc(N3CCOCC3)c1)Nc1nccc-2n1
6. CN1CCCNC(=O)[C@H](CO)NCc2cc(Br)cc(c2)Nc2nccc(n2)-c2ccc(cc2)C1

(A)
["> 10 µM", "8.13 µM", "> 10 µM", "> 10 µM", "> 10 µM", "> 10 µM"]

Take each entry in turn and give its IC50.
1. O=C1NCc2cccc(c2)-c2ccnc(n2)Nc2cccc(c2)CN[C@H]1Cc1ccccc1
2. O=C(NC1CCCCC1)c1ccc2cc1CN1CCC[C@H]1C(=O)NCc1cccc(c1)-c1ccnc(n1)N2
3. O=C1CN2CCN(CC2)Cc2cc(ccc2N2CCOCC2)Nc2nccc(n2)-c2ccc(cc2)CNCCN1
4. O=C1NCc2cccc(c2)-c2ccnc(n2)Nc2cc(CNC3CCOCC3)cc(c2)CN2CCC[C@@H]12

(A)
1. 4.79 µM
2. > 10 µM
3. > 10 µM
4. 0.676 µM

---

System: A2780
Assay: Cellular proliferation assay (Alamar blue), A2780
Type: cell-based
Settings: Homo sapiens, 10% FCS, 72 hours with compound, Alamar blue 24 h, read-out: A2780 (cellular proliferation assay, Table 4) (converted)
Kindly state IC50 for each of the entries shown.
One number for each entry, in µM.

Here's what some known entries look like.
>>> testvalue("O=C1NCCCOc2cccc(c2)-c2ccnc(n2)Nc2ccc(N3CCOCC3)c(c2)CN2C[C@H](O)C[C@@H]12")
7.76
>>> testvalue("O=C1NCCNCc2ccc(cc2)-c2ccnc(n2)Nc2ccc(N3CCOCC3)c(c2)CN2CCC[C@@H]12")
6.46
>>> testvalue("CN(C)CCNC(=O)c1cc2cc(c1)Nc1nccc(n1)-c1cccc(c1)CNC(=O)[C@@H]1CCCN1C2")
2.09
>>> testvalue("O=C1NCc2ccc(cc2)-c2ccnc(n2)Nc2ccc(N3CCOCC3)c(c2)CN2CCC[C@@H]12")
4.07
>>> testvalue("CC(C)Nc1cc2cc(c1)Nc1nccc(n1)-c1ccc(cc1)CN(C)CCNC(=O)C1CCN(CC1)C2")
6.31
>>> testvalue("O=C1NCCOc2ccc(cc2)-c2ccnc(n2)Nc2ccc(N3CCOCC3)c(c2)CN2CCC1CC2")
0.195
>>> testvalue("O=C1NCCCc2cc(ccn2)-c2ccnc(n2)Nc2cccc(c2)CN[C@H]1CO")
1.45
>>> testvalue("O=C1NCc2cccc(c2)-c2ccnc(n2)Nc2cccc(c2)CN[C@H]1CO")
5.5
>>> testvalue("O=C1NCc2cc(ccc2N2CCOCC2)Nc2nccc(n2)-c2cccc(c2)CCN2CCC[C@@H]12")
2.51
>>> testvalue("C[C@H]1NCc2cc(ccc2N2CCOCC2)Nc2nccc(n2)-c2cccc(c2)OCCCNC1=O")
8.71

Take each entry in turn and give its IC50.
1. COc1cc2cc(c1)Nc1nccc(n1)-c1ccc(cc1)CN(C)CCNC(=O)C1CCN(CC1)C2
2. CN(C)Cc1cc2cc(c1)Nc1nccc(n1)-c1cccc(c1)CNC(=O)[C@@H]1CCCN1C2
3. CN1CCCNC(=O)[C@@H]2CCCN2Cc2cc(Br)cc(c2)Nc2nccc(n2)-c2ccc(cc2)C1

(A)
1: 5.89; 2: 0.174; 3: 2.69

---

Target: PLK4 (h) (Homo sapiens)
Sequence (O00444 whole entry): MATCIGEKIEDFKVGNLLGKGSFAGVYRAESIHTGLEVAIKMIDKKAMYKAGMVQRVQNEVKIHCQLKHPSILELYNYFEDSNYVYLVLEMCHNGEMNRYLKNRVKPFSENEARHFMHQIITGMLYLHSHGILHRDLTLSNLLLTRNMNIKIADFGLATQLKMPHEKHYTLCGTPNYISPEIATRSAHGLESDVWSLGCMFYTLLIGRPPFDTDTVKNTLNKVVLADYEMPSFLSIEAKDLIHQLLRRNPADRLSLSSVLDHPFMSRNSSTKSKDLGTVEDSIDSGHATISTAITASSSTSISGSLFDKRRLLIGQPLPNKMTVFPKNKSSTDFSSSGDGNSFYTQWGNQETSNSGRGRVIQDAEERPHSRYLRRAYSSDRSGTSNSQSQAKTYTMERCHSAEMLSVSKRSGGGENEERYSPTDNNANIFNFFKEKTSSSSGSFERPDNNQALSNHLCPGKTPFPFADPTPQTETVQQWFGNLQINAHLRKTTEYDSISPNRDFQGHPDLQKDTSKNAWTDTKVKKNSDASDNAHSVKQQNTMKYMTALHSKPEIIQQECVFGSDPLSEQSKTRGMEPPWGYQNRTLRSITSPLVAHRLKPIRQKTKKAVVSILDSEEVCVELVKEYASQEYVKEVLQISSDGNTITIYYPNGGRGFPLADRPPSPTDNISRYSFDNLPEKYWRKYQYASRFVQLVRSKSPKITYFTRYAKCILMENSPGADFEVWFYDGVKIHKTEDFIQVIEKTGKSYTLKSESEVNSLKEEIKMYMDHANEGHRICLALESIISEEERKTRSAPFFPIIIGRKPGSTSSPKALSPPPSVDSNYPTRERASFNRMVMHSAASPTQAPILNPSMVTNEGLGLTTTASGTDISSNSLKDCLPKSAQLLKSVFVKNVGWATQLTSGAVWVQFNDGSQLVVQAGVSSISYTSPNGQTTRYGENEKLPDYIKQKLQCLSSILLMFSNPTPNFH
Test: PLK-4 human kinase inhibition, scintillation proximity assay (SPA)
Type: biochemical
Conditions: read-out: PLK4 pIC50 (converted)
Experimental: In the SPA technology the activity of the kinase of interest is measured using an appropriate biotinylated substrate that is incubated with the aforementioned kinase protein in the presence of (^33P) radiolabeled ATP. (^33P) Phosphorylation of the substrate is subsequently measured through binding of the phosphorylated substrate to streptavidine coated beads that are based on the scintillant poly(vinyl toluene) (PVT-Beads). The scintillation intensity is detected by imaging on Leadseeker. […]
Please assign not satisfied whenever IC50 is at or above 2000 nM, and satisfied whenever it is below.

Solved entries:
>>> classassignment("COc1ccc2cc1CN(C)CCCNC(=O)[C@@H]1CCCN1Cc1cc(cc(NC(C)C)c1)Nc1nccc-2n1 [Compound 164]")
"not satisfied"
>>> classassignment("COc1ccc2cc1CN(C)CCNC(=O)CN1CCN(CC1)Cc1cc(cc(NC(C)C)c1)Nc1nccc-2n1 [Compound 142]")
"not satisfied"
>>> classassignment("COc1cc2cc(c1)Nc1nccc(n1)-c1ccc(OC)c(c1)CN(C)CCNC(=O)[C@H](CO)NC2 [Compound 107]")
"satisfied"
>>> classassignment("O=C(NC1CCCCC1)c1ccc2cc1CN1CCC[C@H]1C(=O)NCc1cccc(c1)-c1ccnc(n1)N2 [Compound 41]")
"satisfied"
>>> classassignment("C[C@@H]1NCc2cccc(c2)Nc2nccc(n2)-c2cccc(c2)CNC1=O [Compound 184]")
"satisfied"

(Q) Dear colleague, could you confirm whether IC50 of COc1ccc2cc1CN(C)CCCNC(=O)CN1CCN(CC1)Cc1cc(Br)cc(c1)Nc1nccc-2n1 [Compound 144] falls below 2000 nM? Thanks.
(A) not satisfied

(Q) Dear colleague, could you confirm whether IC50 of CC(C)Nc1cc2cc(c1)Nc1nccc(n1)-c1ccc(cc1)CN(C)CCCNC(=O)[C@H](CO)NC2 [Compound 111] falls below 2000 nM? Thanks.
(A) satisfied

(Q) Dear colleague, could you confirm whether IC50 of O=C1NCc2cccc(c2)-c2ccnc(n2)Nc2cc(CN3CCOCC3)cc(c2)CN2CCC[C@@H]12 [Compound 22] falls below 2000 nM? Thanks.
(A) satisfied

(Q) Dear colleague, could you confirm whether IC50 of O=C1NCc2cccc(c2)-c2ccnc(n2)Nc2cc(ccc2Cl)CN[C@H]1CO [Compound 188] falls below 2000 nM? Thanks.
(A) not satisfied

(Q) Dear colleague, could you confirm whether IC50 of CN1CCCNC(=O)CN2CCN(CC2)Cc2cc(Br)cc(c2)Nc2nccc(n2)-c2ccc(cc2)C1 [Compound 137] falls below 2000 nM? Thanks.
(A) not satisfied

(Q) Dear colleague, could you confirm whether IC50 of COc1ccc2cc1CN(C)CCCNC(=O)CN1CCN(CC1)Cc1cc(cc(N3CCOCC3)c1)Nc1nccc-2n1 [Compound 141] falls below 2000 nM? Thanks.
(A) not satisfied

---

Kindly state IC50 for each of the entries shown.
Molecular target: PLK4 (h) (Homo sapiens)
Test: PLK-4 human kinase inhibition, scintillation proximity assay (SPA)
Format: biochemical
Conditions: read-out: PLK4 pIC50 (converted)
Numbers only, in nM.

Here's what some known entries look like.
>>> testvalue("O=C1NCc2cc(ccc2N2CCOCC2)Nc2nccc(n2)-c2cccc(c2)CCN2CCC[C@@H]12")
363
>>> testvalue("CN1CCNC(=O)CN2CCN(CC2)Cc2cc(Br)cc(c2)Nc2nccc(n2)-c2ccc(cc2)C1")
1120

Take each entry in turn and give its IC50.
1. CN1CCCNC(=O)C2CCN(CC2)Cc2cc(Br)cc(c2)Nc2nccc(n2)-c2ccc(cc2)C1
2. COc1cc2cc(c1)Nc1nccc(n1)-c1ccc(OC)c(c1)CN(C)CCNC(=O)CN1CCN(CC1)C2

(A)
1120
813

Take each entry in turn and give its IC50.
1. CN1CCN(C(=O)c2ccc3cc2CN2CCC[C@H]2C(=O)NCc2cccc(c2)-c2ccnc(n2)N3)CC1
2. CN1CCNC(=O)[C@@H]2CCCN2Cc2cc(cc(N3CCOCC3)c2)Nc2nccc(n2)-c2ccc(cc2)C1

(A)
[93.3, 813]
